Origin of values: patent US20200157194A1

t1/2 values by entry
Target: T1, human GREM1 (hGREM1-His; SEQ ID NO: 595) (human, UniProt O60565 25-184)
T1 construct: also called biotin-hGREM1-His; recombinant human GREM1 protein
T1 sequence: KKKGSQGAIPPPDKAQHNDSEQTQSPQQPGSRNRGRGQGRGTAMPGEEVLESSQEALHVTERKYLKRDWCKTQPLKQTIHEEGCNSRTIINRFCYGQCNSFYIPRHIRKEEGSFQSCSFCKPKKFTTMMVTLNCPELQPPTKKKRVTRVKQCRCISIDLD
Assay: SPR, Biacore T200, 25 C, mAb captured, hGREM1-His injected;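 also: Heparin-supplemented HBS-EP+ used as running buffer, association and dissociation phases followed, Kd computed as koff divided by kon and half-life derived from koff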
Measured attribute: t1/2 (h)

1. H4H2892N (antibody, human IgG4, V domains shown, H4H prefix = human IgG4 Fc) VH: QVQLVESGGGVVQPGRSLRLSCAASGFTFSSYGIHWVRQAPGKGLEWVAILWYDGSNKYYADSVKGRFTISRDNSKTTLYLQMNSLRAEDTAVYYCARENYNDLNFDLWGRGTLVTVSS VL: DIQLTQSPSFLSASVGDRVTITCWASQGISSYLAWYQHKPGKAPKLLIYAASTLQSGVPSRFSGSGSGIEFTLTISSLQPEDFATYYCQQLKSYPPWTFGQGTKVEIR ... 1.12
2. H4H6243P (antibody, human IgG4, V domains shown, H4H prefix = human IgG4 Fc) VH: QVQLVQSGAEVKKPGASVKVSCKVSGYTLTELSMHWVRQAPGKGLEWMGGFDPEDGETIYAQKFQDRVTMTEDTSTDTAYMELSSLRSEDTAVYYCVTDDYEILPEYPYNMDVWGQGTTVTVSS VL: DIQMTQSPSSLSASVGDRVTITCRASQSISTYLNWYQQKPGKAPKLLIYAASSLQSGVPSRFSGSGSGTDFTLTIRSLQPEDFATYYCQQSHITPFTFGPGTKVDIK ... 1.08
